System: foxtail, giant (giant foxtail, Setaria faberi)
measurement_protocol: Test A preemergence, foxtail, giant
Assay type: in vivo
condition_label: 31 g ai/ha, 0 to 100 scale, 10 days
readout_label: Plant response rating, Foxtail, Giant

{"compound": "CC(=O)OCOc1c(C)nn(C)c(=O)c1-c1c2ccccc2c(Cl)c2ccccc12 [Compound 12]", "reported_measurement": 10}
{"compound": "Cc1ccc2cc3ccc(F)cc3c(-c3c(OCOC(=O)C(C)(C)C)c(C)nn(C)c3=O)c2c1 [Compound 21]", "reported_measurement": 80}
{"compound": "COc1ccc2cc3ccc(F)cc3c(-c3c(OCOC(C)=O)c(C)nn(C)c3=O)c2c1 [Compound 26]", "reported_measurement": 20}
{"compound": "COc1cc(OC)c2cc3ccc(F)cc3c(-c3c(OCOC(C)=O)c(C)nn(C)c3=O)c2c1 [Compound 25]", "reported_measurement": 0}
{"compound": "CC(=O)OCOc1c(C)nn(C)c(=O)c1-c1c2cc(F)ccc2cc2c(C)cc(C)cc12 [Compound 27]", "reported_measurement": 0}
{"compound": "CC(=O)OCOc1c(C)nn(C)c(=O)c1-c1c2ccccc2c(Br)c2ccccc12 [Compound 14]", "reported_measurement": 60}

Where these numbers come from: patent US12692238B2
